The origin of these recorded values is ChEMBL document CHEMBL1201862.

Quick reference for GI50 among some compounds
- Test system: TK-10
- Procedure details: NCI tumour cell line growth inhibition, 48 h
Activity calls are given as the source filed them. Rule as the data show it: active = GI50 up to about 1.1 µM and inactive = higher.
Result type: GI50

Compound: O=[N+]([O-])c1ccc(C[P+](c2ccccc2)(c2ccccc2)c2ccccc2)cc1
Result type: GI50
Reported result: 56 µM (inactive)

Compound: COc1cccc2c1CCc1ccccc1CC2=O
Result type: GI50
Reported result: > 100 µM (inactive)

Compound: Cc1c(F)c(N)c2c(=O)cc(-c3ccc(NC(=O)CN(C)C)c(F)c3)oc2c1F
Result type: GI50
Reported result: 18.5 µM (inactive)

Compound: O=C1C(Cl)C(c2cccc(O)c2)N1n1cnc2ccccc2c1=O (stereo unspecified)
Result type: GI50
Reported result: > 100 µM (inactive)

Compound: CNNC1=NS(=O)(=O)c2cc(C#N)c(Cl)cc2S1
Result type: GI50
Reported result: > 10 µM (inactive)

Compound: COc1ccc2c(c1)[n+]([O-])c1cc(C#N)ccc1[n+]2[O-]
Result type: GI50
Reported result: 3.21 µM (inactive)
